target: Phospholipase A2 (Apis mellifera, UniProt P00630)
Sequence (P00630 whole entry): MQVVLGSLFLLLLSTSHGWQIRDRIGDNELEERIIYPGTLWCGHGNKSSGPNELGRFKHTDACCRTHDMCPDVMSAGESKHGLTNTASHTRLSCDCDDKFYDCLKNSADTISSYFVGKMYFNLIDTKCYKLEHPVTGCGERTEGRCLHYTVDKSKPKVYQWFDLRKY
Recorded IC50, one value per entry.
Answer in µM, number only, no unit symbol.

Take a look at these entries with their results.
compound_structure=C[C@@]12CCC(=O)/C(=C\NCCc3ccccc3)C1=C(O)C(=O)c1cc3c(cc12)C(=O)C=CC3=O units_label=µM numeric_result=17.7
compound_structure=CC(C)(C)OC(=O)NCCN/C=C1\C(=O)CC[C@]2(C)C1=C(O)C(=O)c1cc3c(cc12)C(=O)C=CC3=O units_label=µM numeric_result=12.8
compound_structure=CCCCCN/C=C1\C(=O)CC[C@]2(C)C1=C(O)C(=O)c1cc3c(cc12)C(=O)C=CC3=O units_label=µM numeric_result=23.9
compound_structure=COC(=O)CN/C=C1\C(=O)CC[C@]2(C)C1=C(O)C(=O)c1cc3c(cc12)C(=O)C=CC3=O units_label=µM numeric_result=76.8

With those in mind, consider the next compound.
Query block: Please look at `CC(C)=CCC/C(C)=C/CN/C=C1\C(=O)CC[C@]2(C)C1=C(O)C(=O)c1cc3c(cc12)C(=O)C=CC3=O` and tell me its recorded IC50 on Phospholipase A2 (Apis mellifera, UniProt P00630).
Result block: 34.4

// provenance: ChEMBL document CHEMBL1667840
